- Tested on: HCT116
- Method summary: In vitro cytotoxicity assay (MTS)
- Assay setup: Homo sapiens, HCT-116, 48 h, read-out: IC50 (relative IC50)
Parameter: IC50 (µM)
Please give a number only; it is taken to be in µM.

Qu. Quick check: IC50 of CCc1c2c(nc3ccc(OC(=O)N4CCC(N5CCCCC5)CC4)cc13)-c1cc3c(c(=O)n1C2)COC(=O)[C@]3(O)CC [Irinotecan] ?
Ans. 3.9

---

- Tested on: HT-29
- Method summary: In vitro cytotoxicity assay (MTS)
- Assay setup: Homo sapiens, HT-29, 24 h, read-out: IC50 (relative IC50)
Parameter: IC50 (µM)
The reply should be a number in µM, with the unit left off.

Qu. Form: Entry = CCc1c2c(nc3ccc(OC(=O)N4CCC(N5CCCCC5)CC4)cc13)-c1cc3c(c(=O)n1C2)COC(=O)[C@]3(O)CC [Irinotecan] | System = HT-29 | IC50 = ____
Ans. 10.7
